Reported pKd values for the following binders.
- experimental_system: T1, GST-PIN1 (UniProt Q13526 1-163, methionine (Met 1) mutated to asparagine (Asn 1))
- T1 construct: peptidyl-prolyl cis-trans isomerase PIN1 from the GST-PIN1 plasmid (Addgene #19027); also called GST-tagged PIN1 construct; source: E. coli BL21 (DE3), purified (Glutathione spin columns)
- T1 sequence (Q13526 other isoform, or with tags, fused parts or gaps with the stated changes): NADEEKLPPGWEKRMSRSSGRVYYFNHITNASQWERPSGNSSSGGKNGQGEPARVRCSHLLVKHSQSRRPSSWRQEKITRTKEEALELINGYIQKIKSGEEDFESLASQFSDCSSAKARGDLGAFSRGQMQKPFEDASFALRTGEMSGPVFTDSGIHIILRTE
- assay_remarks: fluorescence polarisation; GST-PIN1 (or GST) titrated to fluorescently labelled peptide (10 nM); room temperature; 5 mM HEPES pH 7.4, 30 mM NaCl, 0.1% v/v Tween20, 1% v/v DMSO; apparent Kd, variable slope dose-response fit
- condition_info: both partners purified
Square brackets hold non-standard residues; d marks the D form. Ends that are not written are not given here. fluorescein = fluorescein label at the N-terminus via an aminohexanoic acid (Ahx) linker; pS = N[C@@H](COP(=O)(O)O)C(=O)O; Ahx = NCCCCCC(=O)O
Scale explanation: pKd corresponds to minus log10 of a concentration expressed in moles per litre.

Exercise: Sample {fluorescein-Ahx}-DMVQPL[pS]PSQGQST-OH (NRF2 (nuclear factor erythroid 2-related factor 2), residues 402-415, linker between the Neh6 and Neh1 domains; source: synthetic peptide, bought: China Peptides) [fluorescein-labelled NRF2(402-415) pSer408 phospho-peptide] — what was its pKd?
Solution: 6.66

Exercise: Moving on to the next binder: WFY[pS]PFLE (also: fluorescently labelled, site not given here, source: synthetic peptide, bought: China Peptides) [Pintide, fluorescently labelled]
Solution: 7.77

Exercise: Param item: {fluorescein-Ahx}-EDGKPY[pS]PSEYDLQ-OH (NRF2 (nuclear factor erythroid 2-related factor 2), residues 571-584, in the Neh3 domain; see recheck for residue 582; source: synthetic peptide, bought: China Peptides) [fluorescein-labelled NRF2(571-584) pSer577 phospho-peptide]
Solution: 6.77

Exercise: Subsequent entry: {fluorescein-Ahx}-ETTMVP[pS]PEAKLTE-OH (NRF2 (nuclear factor erythroid 2-related factor 2), residues 209-222, in the Neh7 domain; also called Peptide 1; source: synthetic peptide, bought: China Peptides) [fluorescein-labelled NRF2(209-222) pSer215 phospho-peptide]
Solution: 6.80

Measured values drawn from paper PMC11909128 for this set.
